FYI, the data here is from patent US20200369772A1.

target_under_test: T1, human PD-L2 (full-length, on cells) (human, UniProt Q9BQ51 20-273)
T1 construct: whole, on cells; CHO-K1 cells stably expressing full-length human PD-L2; also endogenous on NCI-H226 and transfected in Jurkat cells; also called hPD-L2; CHO-K1/hPD-L2
T1 sequence (looked up): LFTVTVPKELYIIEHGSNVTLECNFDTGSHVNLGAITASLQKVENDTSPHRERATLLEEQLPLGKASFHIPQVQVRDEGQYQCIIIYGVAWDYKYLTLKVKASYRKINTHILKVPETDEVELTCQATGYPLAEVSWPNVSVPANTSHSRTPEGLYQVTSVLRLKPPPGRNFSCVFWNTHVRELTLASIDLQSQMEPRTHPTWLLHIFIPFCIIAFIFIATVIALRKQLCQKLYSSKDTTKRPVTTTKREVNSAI
experimental_protocol: FACS binding on cells expressing human PD-L2 (per the examples)

binder | binding result
19C3-B3 (antibody, V domains shown, Both formats under this entry; also called 19C3-C3) VH: QVQLVESGGGVVQPGRSLRLSCAASGFAFSAYGMHWVRQAPGKGLEWVAISWYDGSNNYHADSVKGRFTISRDSSKNTLYLQMNSLRAEDTAVYYCAKSIGVARHYYYGMDVWGQGTTVTVSS VL: SYELTQPPSVSVSPGQTASITCSGEELGDKYACWYQQKPGQSPLLVIYQDSKRPSGIPERFSGSNSGNAATLTISGTQAMDEADYYCQAWDSITVIFGGGTKLTVLG | binds
